system: mouse neural stem cells (NSCs); experiment: Promoting activity in oligodendrocyte differentiation of mouse neural stem cell (GalC immunostaining); type: cell-based; conditions: 10 nM, day 10, N=5
Gal/C positive ratio Average value vs 10: at or above is class 1, below is class 0.

Q. Threshold query (Gal/C positive ratio Average value >= 10) on C[C@H](CCCN1CCOCC1)[C@H]1CC[C@H]2/C(=C/C=C3C[C@@H](O)C[C@H](O)C3)CCC[C@]12C [Compound D044]
A. class 0

Q. State whether the measured Gal/C positive ratio Average value reaches 10, counting equality as reaching it, for C[C@H](CCN1CCOCC1)[C@H]1CC[C@H]2/C(=C/C=C3C[C@@H](O)C[C@H](O)C3)CCC[C@]12C [Compound D023]
A. class 0

Q. Decide: is the reported value of Gal/C positive ratio Average value for C[C@H](CCN1CCOC[C@@H]1C)[C@H]1CC[C@H]2/C(=C/C=C3C[C@@H](O)C[C@H](O)C3)CCC[C@]12C [Compound D043] equal to or greater than 10?
A. class 1

Q. Is reported Gal/C positive ratio Average value greater than or equal to 10 here: C[C@H](CN1CCOCC1)[C@H]1CC[C@H]2/C(=C/C=C3C[C@@H](O)C[C@H](O)C3)CCC[C@]12C [Compound D004]
A. class 1

Q. Can C[C@H](CCN1CCOC[C@H]1C)[C@H]1CC[C@H]2/C(=C/C=C3C[C@@H](O)C[C@H](O)C3)CCC[C@]12C [Compound D042] be said to have Gal/C positive ratio Average value at or above 10?
A. class 1

Q. Is it the case that C=C1/C(=C\C=C2/CCC[C@]3(C)[C@@H]([C@H](C)CCN4CCOC[C@@H]4C)CC[C@@H]23)C[C@@H](O)CC1O (stereo in doubt) [Compound D045] has Gal/C positive ratio Average value reaching or exceeding 10?
A. class 1

* * *

Experiment: Evaluation of brain penetration in mice (blood and brain concentration at brain Cmax)
Format: in vivo, mouse
Details: 1 mg/kg single oral dose, C57BL/6J mice, n=3
Experimental: The administration solution was administered orally to C57BL/6J mice (8 weeks old, male, n=3) at a single dose (1 mg/kg). Mice were euthanized at 6 points of 0.25, 0.5, 1, 2, 4, and 8 hours after administration, and plasma and brain sampling were performed. […]
readout-type: Concentration in brain (mean ± SD) at brain Cmax (pmol/g)
Return type: number; implicit unit pmol/g.

Q. What value of Concentration in brain (mean ± SD) at brain Cmax has been reported for the following compound? C=C1/C(=C\C=C2/CCC[C@]3(C)[C@@H]([C@H](C)CN4CC[C@H](C(F)F)C4)CC[C@@H]23)C[C@@H](O)[C@H](C)[C@@H]1O
A. 237

Q. Fill blank: measured Concentration in brain (mean ± SD) at brain Cmax of the compound C=C1[C@H](O)CC(=C/C=C2\CCC[C@]3(C)[C@@H]([C@H](C)CN4CCC(C(C)(F)F)CC4)CC[C@@H]23)C[C@H]1O is ____.
A. 338

Q. // lookup Concentration in brain (mean ± SD) at brain Cmax for C=C1[C@H](O)CC(=C/C=C2\CCC[C@]3(C)[C@@H]([C@H](C)CN4CC[C@@H](CC(F)F)C4)CC[C@@H]23)C[C@H]1O
A. 317

Q. Report Concentration in brain (mean ± SD) at brain Cmax for C=C1[C@H](O)CC(=C/C=C2\CCC[C@]3(C)[C@@H]([C@H](C)CN4CCCC(O)(C(F)F)C4)CC[C@@H]23)C[C@H]1O (single isomer, unassigned) [Compound C036b] please.
A. 495

Q. If you can, please state the reported Concentration in brain (mean ± SD) at brain Cmax value of C[C@H](CN1CC[C@@H](CCC(F)F)C1)[C@H]1CC[C@H]2/C(=C/C=C3C[C@@H](O)C[C@H](O)C3)CCC[C@]12C .
A. 38

Q. Entry C=C1/C(=C\C=C2/CCC[C@]3(C)[C@@H]([C@@H](C)CN4CC[C@H](F)C4)CC[C@@H]23)C[C@@H](O)C[C@@H]1O : reported Concentration in brain (mean ± SD) at brain Cmax = ?
A. 533

* * *

assay: Evaluation of brain penetration in mice (blood and brain concentration at brain Cmax); type: in vivo, mouse; conditions: male, mouse, brain/plasma; 1 mg/kg single oral dose, C57BL/6J mice; read-out: Concentration in brain/in blood ratio at brain Cmax
readout-type: Kp
Enter a number only.

Q. Could you share which Kp value was measured for C[C@H](CN1CCOC2(CC2)C1)[C@H]1CC[C@H]2/C(=C/C=C3C[C@@H](O)C[C@H](O)C3)CCC[C@]12C [Compound D019] ?
A. 2.89

* * *

Task for the reader: assign each of the following molecules its reported Concentration in brain (mean ± SD) at brain Cmax.
experiment: Evaluation of brain penetration in mice (blood and brain concentration at brain Cmax); format: in vivo, mouse; conditions: 1 mg/kg single oral dose, C57BL/6J mice, n=3
Give just the numeric value; pmol/g need not be written.

Q. Given the molecule C=C1/C(=C\C=C2/CCC[C@]3(C)[C@@H]([C@H](C)CN4CC[C@H](CC(F)F)C4)CC[C@@H]23)C[C@@H](O)C[C@@H]1O , what is its reported Concentration in brain (mean ± SD) at brain Cmax?
A. 68

Q. Endpoint output: Concentration in brain (mean ± SD) at brain Cmax of C=C1/C(=C\C=C2/CCC[C@]3(C)[C@@H]([C@H](C)CN4CC[C@H](C(C)(F)F)C4)CC[C@@H]23)C[C@@H](O)[C@H](C)[C@@H]1O . Value?
A. 156

Q. Sample C[C@H](CN1CCOC2(CC2)C1)[C@H]1CC[C@H]2/C(=C/C=C3C[C@@H](O)C[C@H](O)C3)CCC[C@]12C — what was its Concentration in brain (mean ± SD) at brain Cmax?
A. 811

Q. Requested field: Concentration in brain (mean ± SD) at brain Cmax. Item: C=C1[C@H](O)CC(=C/C=C2\CCC[C@]3(C)[C@@H]([C@H](C)CN4CCC(CC(F)F)CC4)CC[C@@H]23)C[C@H]1O
A. 241

Q. What value of Concentration in brain (mean ± SD) at brain Cmax has been reported for the following molecule? C[C@H](CN1CC[C@H](OC(F)F)C1)[C@H]1CC[C@H]2/C(=C/C=C3C[C@@H](O)C[C@H](O)C3)CCC[C@]12C
A. 644

Q. # get_value(readout='Concentration in brain (mean ± SD) at brain Cmax', item= C[C@H](CN1CC[C@@H](C(C)(F)F)C1)[C@H]1CC[C@H]2/C(=C/C=C3C[C@@H](O)C[C@H](O)C3)CCC[C@]12C )
A. 562

Q. For the molecule C[C@H](CN1CC[C@@H](OCC(F)F)C1)[C@H]1CC[C@H]2/C(=C/C=C3C[C@@H](O)C[C@H](O)C3)CCC[C@]12C , what Concentration in brain (mean ± SD) at brain Cmax is on record?
A. 67

Q. I'd like to know its Concentration in brain (mean ± SD) at brain Cmax. The molecule in question is C[C@H](CN1CC[C@@H](CC(F)F)C1)[C@H]1CC[C@H]2/C(=C/C=C3C[C@@H](O)C[C@H](O)C3)CCC[C@]12C
A. 80

Q. Record request: Concentration in brain (mean ± SD) at brain Cmax value, item C[C@H](CN1CC[C@@H](C(F)F)C1)[C@H]1CC[C@H]2/C(=C/C=C3C[C@@H](O)C[C@H](O)C3)CCC[C@]12C
A. 384

Q. Endpoint output: Concentration in brain (mean ± SD) at brain Cmax of C=C1[C@H](O)CC(=C/C=C2\CCC[C@]3(C)[C@@H]([C@H](C)CN4CC[C@H](OCC(F)F)C4)CC[C@@H]23)C[C@H]1O . Value?
A. 327

Q. Given the molecule C[C@H](CN1CC[C@H](OCC(F)F)C1)[C@H]1CC[C@H]2/C(=C/C=C3C[C@@H](O)C[C@H](O)C3)CCC[C@]12C , what is its reported Concentration in brain (mean ± SD) at brain Cmax?
A. 141

* * *

target: human VDR (Homo sapiens, UniProt P11473); assay: Evaluation of VDR transcription activity in human osteoblasts (HOS cells), luciferase reporter; settings: Activity (EC50, VDR transcription activity), HOS cells transfected with human VDR, human RXRα and DR3 luciferase reporter; 21 hours
Sequence (P11473 whole entry): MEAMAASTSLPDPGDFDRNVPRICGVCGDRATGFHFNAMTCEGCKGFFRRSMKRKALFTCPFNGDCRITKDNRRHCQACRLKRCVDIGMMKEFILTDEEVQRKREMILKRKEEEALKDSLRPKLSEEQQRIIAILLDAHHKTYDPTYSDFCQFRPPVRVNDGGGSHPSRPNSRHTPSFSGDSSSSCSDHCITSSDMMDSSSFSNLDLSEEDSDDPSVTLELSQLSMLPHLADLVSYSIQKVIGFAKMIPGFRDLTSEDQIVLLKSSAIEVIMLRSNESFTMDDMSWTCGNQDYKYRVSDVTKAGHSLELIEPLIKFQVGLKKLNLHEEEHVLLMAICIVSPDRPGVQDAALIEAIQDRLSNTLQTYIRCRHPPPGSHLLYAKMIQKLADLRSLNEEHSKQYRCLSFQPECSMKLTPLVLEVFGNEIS
Sequence (P19793 whole entry partner): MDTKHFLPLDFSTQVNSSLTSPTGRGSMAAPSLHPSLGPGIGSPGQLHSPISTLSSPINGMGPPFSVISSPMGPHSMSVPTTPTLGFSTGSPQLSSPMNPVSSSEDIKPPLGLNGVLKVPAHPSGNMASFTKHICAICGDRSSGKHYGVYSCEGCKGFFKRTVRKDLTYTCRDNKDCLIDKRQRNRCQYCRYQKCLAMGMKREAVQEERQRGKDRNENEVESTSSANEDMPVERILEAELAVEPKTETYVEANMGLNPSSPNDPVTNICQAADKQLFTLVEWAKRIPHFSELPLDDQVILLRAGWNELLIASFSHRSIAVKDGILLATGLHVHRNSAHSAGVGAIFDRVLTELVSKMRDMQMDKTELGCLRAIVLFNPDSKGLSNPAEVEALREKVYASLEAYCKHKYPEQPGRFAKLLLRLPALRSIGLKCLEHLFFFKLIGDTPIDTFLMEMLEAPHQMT
pEC50: −log10 of the molar value.
Provide the reported pEC50 of each item.

Q. Any idea what pEC50 was measured for C=C1/C(=C\C=C2/CCC[C@]3(C)[C@@H]([C@H](C)CCN4CCOC[C@@H]4C)CC[C@@H]23)C[C@@H](O)CC1O (stereo in doubt) ?
A. 7.00 to 8.00

Q. Entry C=C1/C(=C\C=C2/CCC[C@]3(C)[C@@H]([C@H](C)CN4CCOC(C(F)(F)F)C4)CC[C@@H]23)C[C@@H](O)[C@H](C)[C@@H]1O (single isomer, unassigned) [Compound D009a] has what pEC50?
A. 8.00 to 9.00

Q. Look up pEC50: C=C1[C@H](O)CC(=C/C=C2\CCC[C@]3(C)[C@@H]([C@H](C)CCN4CCO[C@H](C(F)F)C4)CC[C@@H]23)C[C@H]1O
A. 8.00 to 9.00

Q. Which pEC50 is reported for this compound? C=C1/C(=C\C=C2/CCC[C@]3(C)[C@@H]([C@H](C)CCN4CCOC[C@H]4C)CC[C@@H]23)C[C@@H](O)CC1O (stereo in doubt)
A. 7.00 to 8.00

Q. Tell me the measured pEC50 of C=C1C(O)CC(=C/C=C2\CCC[C@]3(C)[C@@H]([C@H](C)CN4CC[C@H](OC(F)(F)F)C4)CC[C@@H]23)C[C@H]1O (stereo in doubt) , please.
A. 8.00 to 9.00

Q. Could you tell me which pEC50 is on file for C=C1[C@H](O)CC(=C/C=C2\CCC[C@]3(C)[C@@H]([C@H](C)CN4CC(O)(C(F)(F)F)C4)CC[C@@H]23)C[C@H]1O ?
A. > 9.00

Q. Fill in the blank: the reported pEC50 of C=C1[C@H](O)CC(=C/C=C2\CCC[C@]3(C)[C@@H]([C@H](C)CCN4CC[C@H](C(F)F)C4)CC[C@@H]23)C[C@H]1O is ____.
A. 8.00 to 9.00
